# assayedTarget: mGluR5 receptor (Sus scrofa, UniProt I3LUI7)
# Construct: 450 μg of protein from brain homogenate with 5 nM ^3[H]-MPEP; from tissue; host or cells: pig brain halves without medulla, cerebellum and pons
# Sequence (I3LUI7 19-1212): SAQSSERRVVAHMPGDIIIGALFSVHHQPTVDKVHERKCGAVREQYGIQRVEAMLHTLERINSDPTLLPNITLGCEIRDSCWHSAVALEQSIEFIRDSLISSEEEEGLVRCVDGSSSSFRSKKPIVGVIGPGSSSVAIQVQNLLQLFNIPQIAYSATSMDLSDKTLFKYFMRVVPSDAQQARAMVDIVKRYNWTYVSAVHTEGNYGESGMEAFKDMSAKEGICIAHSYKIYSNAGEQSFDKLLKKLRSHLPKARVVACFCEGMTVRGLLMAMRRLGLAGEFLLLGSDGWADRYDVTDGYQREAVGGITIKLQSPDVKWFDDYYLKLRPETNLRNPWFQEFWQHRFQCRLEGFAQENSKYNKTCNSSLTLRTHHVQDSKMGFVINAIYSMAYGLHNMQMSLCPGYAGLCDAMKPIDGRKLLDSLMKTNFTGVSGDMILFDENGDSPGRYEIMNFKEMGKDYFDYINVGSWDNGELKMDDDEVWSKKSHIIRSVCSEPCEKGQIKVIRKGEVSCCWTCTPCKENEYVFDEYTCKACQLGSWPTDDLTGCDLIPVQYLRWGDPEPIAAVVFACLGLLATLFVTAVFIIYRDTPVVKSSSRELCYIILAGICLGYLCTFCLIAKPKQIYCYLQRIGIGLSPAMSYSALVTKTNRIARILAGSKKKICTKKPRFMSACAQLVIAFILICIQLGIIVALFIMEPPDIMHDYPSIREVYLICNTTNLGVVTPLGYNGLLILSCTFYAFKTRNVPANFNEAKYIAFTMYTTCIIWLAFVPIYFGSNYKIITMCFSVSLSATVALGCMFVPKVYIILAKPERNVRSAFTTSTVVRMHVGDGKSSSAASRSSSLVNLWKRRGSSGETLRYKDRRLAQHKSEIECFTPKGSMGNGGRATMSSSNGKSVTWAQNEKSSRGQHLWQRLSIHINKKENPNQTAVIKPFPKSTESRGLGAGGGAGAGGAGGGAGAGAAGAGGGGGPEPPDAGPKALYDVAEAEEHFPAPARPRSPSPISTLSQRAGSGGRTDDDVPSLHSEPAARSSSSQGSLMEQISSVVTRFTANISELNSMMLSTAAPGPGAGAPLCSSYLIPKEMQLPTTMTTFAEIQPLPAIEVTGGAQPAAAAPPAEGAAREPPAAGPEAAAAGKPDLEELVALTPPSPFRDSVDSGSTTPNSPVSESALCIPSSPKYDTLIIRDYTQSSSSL
# assayProtocol: [3H]-MPEP mGluR5 receptor binding assay (pig brain homogenate)
# conditionContext: 10 μM compound, 5 nM [3H]-MPEP, read-out: % Inhibition of mGluR5 Receptor (pig) [^3H]-MPEP Bond at 10 μM
Would you kindly list inhibition at 10 µM for each of these compounds?
Use % as the unit, but write only the number.

Lookup: Need inhibition at 10 µM, item CC(C)(C)Nc1ncnc2ccc(-c3ccc(F)c(CN(C(=O)c4cccc(F)c4)C4CC4)c3)cc12 [Example 849]
Found: 86

Lookup: Need inhibition at 10 µM, item COc1ccc(C(=O)N(Cc2cccc(-c3ccc4ncnc(NC5CC5)c4c3)c2)C2CC2)cc1OC [Example 158]
Found: 81

Lookup: Need inhibition at 10 µM, item O=C(c1ccc(C(F)(F)F)cc1F)N(Cc1cc(-c2ccc3ncnc(NC4CC4)c3c2)ccn1)C1CC1 [Example 735]
Found: 72
